test: protein stability index of a GFP-peptide fusion (yeast GPS) (PSI 1-4); higher = more stable; sorted into four equal gates, so the index is relative within each strain; details: pdr5∆
Decide using protein stability index: a value greater than or equal to 3 is yes (1), a smaller one is no (0).

query: Does QQMQPPNSSANNNPLQQ [GAL11] have a reported protein stability index of at least 3?
result: no (0)

query: Does LYAVSTFENTNNTEKND [SIR4] have a reported protein stability index of at least 3?
result: no (0)

query: Does SSNPQSAYVKAFYQKGN [SMC1] have a reported protein stability index of at least 3?
result: no (0)

query: Does GKALVHHYEECAERVKI [QCR6] have a reported protein stability index of at least 3?
result: yes (1)

query: Does KNMGLVPMKEENLEESF [SSN2] have a reported protein stability index of at least 3?
result: yes (1)

query: Does DHQHILRKLKKMNNKPE [RPC53] have a reported protein stability index of at least 3?
result: no (0)

* * *

test: protein stability index of a GFP-peptide fusion (yeast GPS) (PSI 1-4); higher = more stable; sorted into four equal gates, so the index is relative within each strain; conditions: pdr5∆
PROPERTY LABEL: protein stability index
Please respond with just the number, no unit label.

query: State the recorded protein stability index for this entry: IERLTKRQFNNSYWLII [ITC1]
result: 2.62

query: State the recorded protein stability index for this entry: GNSGVVRATFRNNLPAK [RPL33A]
result: 3.17

query: State the recorded protein stability index for this entry: HHNDISNDSQSHFDYNT [YCG1]
result: 2.16

query: State the recorded protein stability index for this entry: LQVGDVVSTTAVIESVV [FAS1]
result: 1.59

query: State the recorded protein stability index for this entry: KQANNFLWPFKLSNPSG [RPL7A]
result: 3.02

query: State the recorded protein stability index for this entry: KLHMGTEDVRLAPELNQ [RPL31B]
result: 3

query: State the recorded protein stability index for this entry: FSYFFESFESYHNLTTH [RPN6]
result: 2.65

query: State the recorded protein stability index for this entry: PPSSFGRSHTRNSTRSS [REC8]
result: 2.65

query: State the recorded protein stability index for this entry: VILFDSDWNPQADLQAM [ISW2]
result: 2.38

query: State the recorded protein stability index for this entry: FYQGKTGVVYNVTKSSV [RPL21A]
result: 2.58

query: State the recorded protein stability index for this entry: TSLQGTYEAIEITDAYC [YMR129W/POM152]
result: 2.86

query: State the recorded protein stability index for this entry: EPIKVNVRVGQAVETVG [RPN1]
result: 2.26

query: State the recorded protein stability index for this entry: KIMPKDILQITKKPLMV [SIR4]
result: 2.79

query: State the recorded protein stability index for this entry: EPMKQLNATKISPSAPS [YAR002W/NUP60]
result: 2.91

query: State the recorded protein stability index for this entry: VENWIIDDKGVLMERKD [ITC1]
result: 2.98

query: State the recorded protein stability index for this entry: AELQSNLQVELLSEHDD [YGL100W/SEH1]
result: 2.95

query: State the recorded protein stability index for this entry: TKDLLSKSPSEWQDIIH [CSE2]
result: 2.99

query: State the recorded protein stability index for this entry: LNELSAKDKEIYNKMIG [RPN13]
result: 2.65

query: State the recorded protein stability index for this entry: EEIRSQIDHFKSMLSKP [SWI3]
result: 2.32

query: State the recorded protein stability index for this entry: YKLGKVKKVQLGKKGVP [RPS4A]
result: 2.98

query: State the recorded protein stability index for this entry: ELGVSIYDFPGTPEATK [NUT2]
result: 3.06

query: State the recorded protein stability index for this entry: QVARTNLDGTKAVKLRK [ROX3]
result: 3.13

query: State the recorded protein stability index for this entry: KPFRQTKFKVRGSSSLY [RPL38]
result: 3.33

query: State the recorded protein stability index for this entry: ESISQTPISNEQTEGEP [SRP68]
result: 3.29

query: State the recorded protein stability index for this entry: VVLRLYLKDNITLLTRQ [GRR1]
result: 1.75

query: State the recorded protein stability index for this entry: KYLDQVLDHQRAIPFRR [RPL17B]
result: 2.35

query: State the recorded protein stability index for this entry: PASDDILDNINHNGSAL [ITC1]
result: 3.21

query: State the recorded protein stability index for this entry: SSLLSRLISSKMPGGFT [FAS2]
result: 2.41

query: State the recorded protein stability index for this entry: DPNLSFESSSSLPFLLR [SSN2]
result: 3.19

query: State the recorded protein stability index for this entry: LNTFGSKICLSHFSLDQ [ITC1]
result: 2.18

query: State the recorded protein stability index for this entry: QEQLKQMDQQLQYTALT [ARP7]
result: 2.67

query: State the recorded protein stability index for this entry: LELRNSVMDDILEMMPE [PRP8]
result: 3.26

query: State the recorded protein stability index for this entry: LALEIIVRPAKGVATTR [RRP46]
result: 2.18

query: State the recorded protein stability index for this entry: NVTKSSVGVIINKMVGN [RPL21A]
result: 2.98

query: State the recorded protein stability index for this entry: ENIPVALCKNRKCQFRT [POP1]
result: 2.68

query: State the recorded protein stability index for this entry: ITQDGKFAYKIDKITDG [YMR129W/POM152]
result: 3.03

query: State the recorded protein stability index for this entry: KIYINLALGSHNKLIQF [SSN2]
result: 1.83

query: State the recorded protein stability index for this entry: LADSLDRCVDPEDPYFN [DIS3]
result: 2.64

query: State the recorded protein stability index for this entry: WKEVMFDPSKDVLINEL [CDC53]
result: 1.87

query: State the recorded protein stability index for this entry: ANTSNNLFGATANANKP [YJL041W/NSP1]
result: 3.27

query: State the recorded protein stability index for this entry: LQCHISGTTNFMRNGLL [UBP6]
result: 1.66

query: State the recorded protein stability index for this entry: IHLNELLTNDESAFENL [SNF12]
result: 2.91

query: State the recorded protein stability index for this entry: DVAYLLKSESATSQYLK [YGL172W/NUP49]
result: 3.21

query: State the recorded protein stability index for this entry: TGGTRTKTPGPGGQAAL [RPS14A]
result: 3.11

query: State the recorded protein stability index for this entry: KVAQLRQTGPAKINEVY [NSL1]
result: 3.04

query: State the recorded protein stability index for this entry: NVMTPREQYETQVALNE [UBP6]
result: 3.22

query: State the recorded protein stability index for this entry: TSTPPPPPAPHNLHPQI [SNF5]
result: 3.16

query: State the recorded protein stability index for this entry: RSLEKVNNSVSKTGSVD [SSN2]
result: 3.53

query: State the recorded protein stability index for this entry: SHNENKMDFSSKEGQYK [YIL149C/MLP2]
result: 3.29

query: State the recorded protein stability index for this entry: AGFDPRDDEPKLYQTEP [PRE6]
result: 3.03

query: State the recorded protein stability index for this entry: RASKALIERYYPKLTLD [RPS17A]
result: 2.51

query: State the recorded protein stability index for this entry: TENEKFISYHDKYLCML [NUT1]
result: 3

query: State the recorded protein stability index for this entry: PLGKILLKGDNITLITS [SME1]
result: 3.12

query: State the recorded protein stability index for this entry: GMTKSNIYNFSPSERIE [BRR2]
result: 3.38

query: State the recorded protein stability index for this entry: KTEDGFVIPALPAAVSK [RPC82]
result: 2.41

query: State the recorded protein stability index for this entry: SLVSTQSSSSTRSHEYG [REC8]
result: 3.04

query: State the recorded protein stability index for this entry: KIRCFRYISTLTLYLFQ [IRR1]
result: 1.47

query: State the recorded protein stability index for this entry: TEVIIRATRTQDVLGEN [RPS3]
result: 2.92

query: State the recorded protein stability index for this entry: DKTAVKLDTEVKNTNAN [SWP82]
result: 2.83

query: State the recorded protein stability index for this entry: LTEGGSILEEKIAVLNN [SMC1]
result: 2.85
